tested on: TK-10 renal; experiment: NCI-60 one-dose screen, 48 h (100 = growth as untreated, 0 = no growth, -100 = all killed); conditions: 10 µM unless noted
This is part of a sample that, as a whole, favours compounds with a hit. Of some 83,000 tested, about 20% had one in any assay. Activity calls are given as the source filed them. Rule for the calls: active = growth percent below 10; inactive = the rest.
Provide the recorded growth for the entries that follow.

I am curious: what growth value has been reported for COc1ccc(Nc2nc(N)nc3c2CCN(Cc2ccc(OC)cc2OC)C3=O)cc1 ?
84.8% (inactive)

Now this one: CCN(CC)CCOC(=O)C(c1ccccc1)(c1ccccc1)C(C)C
91.6% (inactive)

Now this one: C=C[C@@H]1C[C@@H]2Cc3ccccc3N1O2
108% (inactive)

Now this one: CCCCC(CC)OC(=O)C(Br)CC (stereo not drawn)
103% (inactive)

Now this one: COc1ccc2cc(-c3ccc(-c4ccc(C(=N)N)cc4)s3)ccc2c1
48.1% (inactive)

Now this one: Cc1ccc(S(=O)(=O)NCCCNc2cc(-c3cn(C(C)(C)C)nc3-c3cccc(O)c3)ccn2)cc1
107% (inactive)

Now this one: COc1cc(/C=C/c2cc(/C=C/c3ccc(O)c(OC)c3)n(C(N)=O)n2)ccc1O
4.79% (active)

Now this one: COc1ccc(C2=Nn3c(nnc3-n3nc(C)cc3C)SC2)cc1
49% (inactive)

Now this one: COc1cccc(-c2nc3sccn3c2-c2ccnc(NCCCNS(=O)(=O)c3ccc(C(F)(F)F)cc3)c2)c1
85.5% (inactive)

Now this one: Cn1ccc(=O)c(S(N)(=O)=O)c1
113% (inactive)

Now this one: CCOC(=O)c1ccc2c(c1)c1c(C)c3cccnc3c(C)c1n2C
87.8% (inactive)

Now this one: O=S1(=O)CCC(N(/N=C/c2ccco2)c2ccccc2)C1 (stereo not drawn)
101% (inactive)

Now this one: NNc1cccc(/C=C/c2ccccc2)cc1=O
70.7% (inactive)

Now this one: COc1ccc2c(c1)C(c1cc(OC)c3c(c1)OCO3)C1=C(COC1=O)N2 (stereo not drawn)
60.8% (inactive)

Now this one: COc1ccc(-c2c(-c3cc(OC)c4c(c3)OCO4)noc2N)cc1
54.8% (inactive)

Now this one: COc1cccc(/C=C2\Oc3cc(OCCCN4CCCC4)ccc3C2=O)c1OC
104% (inactive)

Now this one: CC(C)(C)n1cc(-c2ccnc(NCCCNS(=O)(=O)c3ccccc3)c2)c(-c2cccc(O)c2)n1
89.7% (inactive)

Now this one: COc1cc(-c2nn(-c3cccc(NC(=O)c4ccc(Cl)c(C(F)(F)F)c4)c3)cc2-c2ccncc2)ccc1Cl
69.5% (inactive)

Now this one: COc1ccc(S(=O)(=O)n2ccc(-c3ccc4c(c3)CCC(C)(C)O4)n2)cc1OC
72.1% (inactive)

Now this one: CC1(c2ccc(Cl)cc2)OC(=O)CC(=O)O1
121% (inactive)

Now this one: COc1cc(NCCCCCN)c2ncccc2c1
119% (inactive)

Now this one: CCCCCCN1CSC(=S)N(CCCCCC)C1
111% (inactive)

Now this one: Oc1ccccc1/C=N/NC(=S)NC1CC2C=CC1C2 (stereo not drawn)
103% (inactive)

====

Provide the recorded growth for the entries that follow.
tested on: UACC-257 melanoma; assay: NCI-60 one-dose screen, 48 h (100 = growth as untreated, 0 = no growth, -100 = all killed); settings: 10 µM unless noted
This is part of a sample that, as a whole, favours compounds with a hit. Of some 83,000 tested, about 20% had one in any assay.
Please reply with the bare figure in % and do not write the unit itself.

I am curious: what growth value has been reported for COc1cc(Nc2ncccc2C(=O)NCc2cn(Cc3cccc(Oc4ccccc4)c3)nn2)cc(OC)c1 ?
74

Now this one: COc1ccc(-c2nc(/C=C3/C(=O)Nc4ccc(F)cc43)c3ccccn23)cc1
102

Now this one: O=C(Nc1ccc(NCCN2CCOCC2)nc1)c1ccc([N+](=O)[O-])cc1
93.1

Now this one: COc1cc(/C=C/C(=O)c2ccc(Nc3ncnc4cc(OC)c(OC)cc34)cc2)cc(OC)c1
95.1

Now this one: C=C[C@@H]1C[C@H](O)Cc2c(C)cc(C)cc2N1
97.6

Now this one: COc1ccc(-c2cc(-c3ccccc3)nc(SCCCC(=O)NO)n2)cc1OC
-18.2

Now this one: COc1cc(/C=C/C(=O)/C=C/c2cc(OC)c3c(c2)OCO3)cc2c1OCO2
103

Now this one: Oc1ccc2cc(Br)ccc2c1-c1c(O)ccc2cc(Br)ccc12
82.6

Now this one: CCCCCCCC/C=C/CCCCCCCC1=NC(C)(C)CN1C(C)(C)CO
-28.5

Now this one: Cc1cc(N/N=C/c2nc(-c3ccccc3)oc2C)c2cc(Cl)ccc2n1
106

Now this one: COc1cc(-c2nn(-c3cccc(NC(=O)c4ccccc4)c3)cc2-c2ccncc2)ccc1Cl
8.64

Now this one: CC1=NC2=CC=CC3=NC(C(Cl)(Cl)Cl)=NC(=N1)N23
63.9

Now this one: CCN(CC)CCCNc1nccc2ccc(Cl)cc12
91

====

System: SF-295 CNS
Assay: NCI-60 one-dose screen, 48 h (100 = growth as untreated, 0 = no growth, -100 = all killed)
Conditions: 10 µM unless noted
Experimental: Cells are grown in 96 well plates and exposed to the test compound for 48 hours. Compounds are tested at a single concentration, which is 10^-5 M for most compounds. The reported endpoint is percent growth (GI% or GIPRCNT), where numbers from 0 - 100% represent growth inhibition, and numbers from -100% - 0 represent cell death. For example, a value of 40 represents 60% growth inhibition. A value of 0 means no net growth occurred over the course of the experiment. […]
The panel holds about 83,000 compounds, 20% with a hit somewhere; the sample as a whole holds those more often.
Provide the recorded growth for the entries that follow.
Please reply with the bare figure in % and do not write the unit itself.

I am curious: what growth value has been reported for OCCCCCCNc1ncnc2cc(Cl)ccc12 ?
99

Now this one: Nc1ccc(C(=O)CSc2nc3ccccc3[nH]2)cc1
98.1

Now this one: COc1ccc2[nH]c(=O)c3c4ccccc4cn3c2c1
-2.6

Now this one: CN(C[C@H]1Cc2c(cccc2N2CCN(c3ncccn3)CC2)CN1)[C@H]1CCCc2cccnc21
44.4

====

tested on: SW-620 colon; assay: NCI-60 one-dose screen, 48 h; settings: 10 µM unless noted
The panel holds about 83,000 compounds, 20% with a hit somewhere; the sample as a whole holds those more often. The source made the active and inactive calls. How the source made its calls: active means growth percent below 10; inactive means the rest.
A correct response names exactly one class from active, inactive

What outcome does the record of this test show for Brc1cccc(-c2cc(-c3ccc4c(c3)OCCCO4)[nH]n2)c1 ?
inactive

Now this one: COc1ccc(-c2ccc(C)n2-c2ccc(-c3nc4cc(Cl)ccc4s3)cc2)cc1
inactive

Now this one: COc1ccc(S(=O)(=O)n2cc(C(=O)C(=O)Nc3ccncc3)c3ccccc32)cc1F
inactive

Now this one: COc1cc(-c2ncn(/C=C\C(=O)OC(C)C)n2)cc(C(F)(F)F)c1
active

Now this one: COc1ccc(S(=O)(=O)NCCCNc2nccc(-c3c(-c4cccc([N+](=O)[O-])c4)nc4sccn34)n2)cc1
inactive

Now this one: CC1=C(C#N)C(=O)NC(C)C1 (centres undefined)
inactive

Now this one: S=c1[nH]nc(-c2cc3ccc2CCc2ccc(cc2)CC3)n1C1CC1
inactive

Now this one: C=C1CCC2C(C)(CO)C(O)CCC2(C)C1C/C=C1/C(=O)OCC1O/C=C/c1ccccc1 (centres undefined)
active

Now this one: O=S(=O)(NCCCNc1nccc(-n2ccc3cccnc32)n1)c1cccc(C(F)(F)F)c1
inactive

Now this one: CC(=O)c1cc2c(N)c(C(=O)Nc3cccc4c3OCCO4)sc2nc1C
inactive

Now this one: CCCN=C1NC(=O)/C(=C/c2nc(-c3ccc(OC)cc3)n3ccccc23)S1
inactive

Now this one: CC12CCC3C4(C)COC(c5ccco5)OC4CCC3(C)C1CC(C1=CCOC1=O)O2 (centres undefined)
inactive

Now this one: Cc1ccc(C(=O)NCCCNc2nccc(-n3ccc4cccnc43)n2)cc1
inactive

Now this one: Cn1cc(-c2cnc3ccc(NC(=O)Nc4ccc(F)c(Br)c4)cc3n2)cn1
inactive

Now this one: COc1ccc(C(=O)c2cc(OC)c(OC)c(OC)c2OC)cc1O
inactive

Now this one: Cc1nc2ncccc2nc1Nc1ccc(S(=O)(=O)Nc2cncs2)cc1
inactive

Now this one: COc1ccc(C2NN=C3c4ccccc4CCC32)cc1 (centres undefined)
inactive

Now this one: N/C(=N\C(N)=N\c1nc2ccccc2s1)c1cccc(Br)c1
inactive

Now this one: CCCCCCCCCCCCNC(=O)[C@H]1CSC(c2cc3ccccc3s2)N1 (some centres undefined)
active

Now this one: CC(C)(C)n1cc(-c2ccnc(NCCCNS(=O)(=O)c3ccc(F)cc3)c2)c(-c2cccc(O)c2)n1
active

Now this one: O=C(NCCCNc1nccc(-n2ccc3cccnc32)n1)c1c(F)cccc1F
inactive

Now this one: O=C(Nc1ccc2c(c1)OCO2)C(=O)c1c[nH]c2cc(F)ccc12
inactive

Now this one: C=C(C)[C@@H]1C[C@@H]2Cc3cc(F)ccc3N1O2
inactive

Now this one: CCOC(=O)/C(C#N)=C1/C(=O)Nc2ccccc21
inactive

Now this one: N=C(N)c1ccc(-c2ccc(-c3ccc(-c4cccs4)s3)s2)cc1
inactive

Now this one: COc1cc(C2NN=C3c4ccccc4CCC32)cc(OC)c1OC (centres undefined)
inactive

Now this one: c1ccc(Nc2nc(Nc3ccccc3)nc(Nc3ccccc3)n2)cc1
inactive

Now this one: O=c1[nH]c(Nc2ccc(S(=O)(=O)O)cc2)nc2nc(Nc3ccc(NC(=S)Nc4ccccc4)cc3)nc(-c3ccc(O)cc3O)c12
inactive

Now this one: c1ccc(-c2cn(-c3ccccc3)c(-c3ccccc3)n2)cc1
inactive

Now this one: COc1ccc(Nc2[nH]n3c(=O)cc(C)nc3c2C(N)=O)c(OC)c1
inactive

Now this one: CN1CCN(CCCOc2ccc3nc(Nc4ccc(Cl)c(C(F)(F)F)c4)ccc3c2)CC1
active

Now this one: O=C(CSc1nc2ccccc2[nH]1)c1ccc(N2CCOCC2)cc1
inactive

Now this one: COc1ccc(Nc2nn3c(-c4ccccc4)cc(-c4ccccc4)nc3c2C(N)=O)c(OC)c1
inactive

Now this one: COc1cc2c(cc1O)CCN1C[C@@H](CC(C)C)[C@@H](O)C[C@@H]21
inactive
